target: TACE (Homo sapiens); construct: purchased R&D Systems, Minneapolis; assay: Determination of inhibitory potency, TACE; type: biochemical; details: read-out: IC50 (μM) on TACE
Sequence (P78536 215-824): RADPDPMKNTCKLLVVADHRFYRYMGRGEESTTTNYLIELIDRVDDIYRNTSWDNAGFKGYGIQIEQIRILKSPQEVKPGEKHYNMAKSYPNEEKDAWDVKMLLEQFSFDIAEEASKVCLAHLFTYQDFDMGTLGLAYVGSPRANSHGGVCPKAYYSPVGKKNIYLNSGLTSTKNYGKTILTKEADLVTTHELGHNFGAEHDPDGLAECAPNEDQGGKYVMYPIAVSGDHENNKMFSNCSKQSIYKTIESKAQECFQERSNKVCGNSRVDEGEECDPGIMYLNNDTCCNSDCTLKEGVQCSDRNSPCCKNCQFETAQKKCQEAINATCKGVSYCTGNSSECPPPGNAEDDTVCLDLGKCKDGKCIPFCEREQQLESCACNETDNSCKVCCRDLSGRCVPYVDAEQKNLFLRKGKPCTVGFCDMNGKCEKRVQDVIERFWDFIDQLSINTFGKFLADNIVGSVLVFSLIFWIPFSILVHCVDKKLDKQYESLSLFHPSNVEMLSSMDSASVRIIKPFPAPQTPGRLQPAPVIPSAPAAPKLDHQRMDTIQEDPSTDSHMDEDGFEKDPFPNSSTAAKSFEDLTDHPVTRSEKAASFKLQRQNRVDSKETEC
What IC50 was measured for each of the following?
Numbers only, in µM.

In the examples that follow, each entry is paired with its recorded IC50.
Molecule: O=C(NCCCCCCCNS(=O)(=O)c1ccc(Oc2ccccc2)cc1)P(=O)(O)O [Compound 6]
Unit Annotation: µM
Readout Number: 22
--
Molecule: NC(CNC(=O)P(=O)(O)O)CNS(=O)(=O)c1ccc(Oc2ccccc2)cc1 (racemic) [Compound 8]
Unit Annotation: µM
Readout Number: 12
--
Molecule: O=C(NCCCCCCCCNS(=O)(=O)c1ccc(Oc2ccccc2)cc1)P(=O)(O)O [Compound 7]
Unit Annotation: µM
Readout Number: 17
--
Molecule: O=C(NCCNS(=O)(=O)c1ccc(Oc2ccccc2)cc1)P(=O)(O)O [Compound 1]
Unit Annotation: µM
Readout Number: 6

Prompt: Input O=C(NCCCCCCNS(=O)(=O)c1ccc(Oc2ccccc2)cc1)P(=O)(O)O [Compound 5] , output reported IC50.
Response: 20

* * *

What IC50 was measured for each of the following?
target: human MMP-13 (Homo sapiens, UniProt P45452); construct: purchased R&D Systems, Minneapolis; experiment: Determination of MMP inhibitory potency, MMP-13; assay type: biochemical; conditions: read-out: IC50 (μM) on MMP-13
Answers are plain numbers, in µM.

In the examples that follow, each entry is paired with its recorded IC50.
Structure Smiles: O=C(NCCCCCNS(=O)(=O)c1ccc(Oc2ccccc2)cc1)P(=O)(O)O
Readout Number: 60
//
Structure Smiles: O=C(NCCNS(=O)(=O)c1ccc(Oc2ccccc2)cc1)P(=O)(O)O
Readout Number: 55
//
Structure Smiles: O=C(NCCCNS(=O)(=O)c1ccc(Oc2ccccc2)cc1)P(=O)(O)O
Readout Number: 25
//
Structure Smiles: O=C(NCCCCCCNS(=O)(=O)c1ccc(Oc2ccccc2)cc1)P(=O)(O)O
Readout Number: 80

For the next question, use this molecule.
Prompt: Input `O=C(NCCCCNS(=O)(=O)c1ccc(Oc2ccccc2)cc1)P(=O)(O)O` , output reported IC50.
Response: 25

* * *

system: MMP and/or ADAM enzyme; test: Duration of inhibitory effect on the enzymes inhibited; type: biochemical, human
Readout Type: Duration of inhibitory effect

In the examples that follow, each entry is paired with its recorded Duration of inhibitory effect.
Compound: N[C@H]1CCCC[C@H]1NC(=O)P(=O)(O)O (relative stereo) [YK-162, reference compound]
Readout Type: Duration of inhibitory effect
Result: <30 min

Compound: O=C(NCCCCCCCNS(=O)(=O)c1ccc(Oc2ccccc2)cc1)P(=O)(O)O [Compound 6]
Readout Type: Duration of inhibitory effect
Result: >180 min

Compound: N[C@@H](CNC(=O)P(=O)(O)O)CNS(=O)(=O)c1ccc(Oc2ccccc2)cc1 [Compound 8S]
Readout Type: Duration of inhibitory effect
Result: >180 min

Compound: O=C(NCCNCCNS(=O)(=O)c1ccc(Oc2ccccc2)cc1)P(=O)(O)O [Compound 10]
Readout Type: Duration of inhibitory effect
Result: >180 min

Prompt: Input NC(CNC(=O)P(=O)(O)O)CNS(=O)(=O)c1ccc(Oc2ccccc2)cc1 (racemic) [Compound 8] , output reported Duration of inhibitory effect.
Response: >180 min
